Test: PAMPA permeability, heart polar lipid extract (HPLE) membrane
Settings: Heart Polar lipid extract membrane, n=3
Attribute Measured: Mean logPe

>  <Compound>
Nc1c(Br)cc(Br)cc1CN[C@H]1CC[C@H](O)CC1

>  <Mean logPe>
-4.21

$$$$

Field: Mean logPe. Fill in for each record below.
1. CO/N=C(\C(=O)N[C@@H]1C(=O)N2C(C(=O)O)=C(COC(N)=O)CS[C@H]12)c1ccco1
2. CC(CCc1ccccc1)NCC(O)c1ccc(O)c(C(N)=O)c1 (centres unmarked)
3. Cc1c(OCC(F)(F)F)ccnc1C[S+]([O-])c1nc2ccccc2[nH]1 (centres unmarked)
4. CCn1cc(C(=O)O)c(=O)c2cc(F)c(N3CCNCC3)nc21

["< -5.89", -5.08, -4.74, -5.44]

====

Test: PAMPA permeability, liver polar lipid extract (LPLE) membrane
Settings: bovine, PAMPA, pH 7.4, Mean Pe, n=3, * = not detected at acceptor side, value calculated from limit of detection
Attribute Measured: Papp at 4 h, 100 μM (×10⁻⁶ cm/s)
Answers are plain numbers, in ×10⁻⁶ cm/s.

Reference set, count: 8
>  <Compound>
CCCCOc1cc(C(=O)NCCN(CC)CC)c2ccccc2n1 [dibucaine]

>  <Unit String>
×10⁻⁶ cm/s

>  <Papp at 4 h, 100 μM>
39.9

$$$$
>  <Compound>
CCn1cc(C(=O)O)c(=O)c2cc(F)c(N3CCNCC3)nc21 [enoxacin]

>  <Unit String>
×10⁻⁶ cm/s

>  <Papp at 4 h, 100 μM>
3.49

$$$$
>  <Compound>
O=C1CC2(CCCC2)CC(=O)N1CCCCN1CCN(c2ncccn2)CC1 [buspirone]

>  <Unit String>
×10⁻⁶ cm/s

>  <Papp at 4 h, 100 μM>
57

$$$$
>  <Compound>
Nc1c(Br)cc(Br)cc1CN[C@H]1CC[C@H](O)CC1 [ambroxol]

>  <Unit String>
×10⁻⁶ cm/s

>  <Papp at 4 h, 100 μM>
54.5

$$$$
>  <Compound>
CN1C(C(=O)Nc2ccccn2)=C(O)c2ccccc2S1(=O)=O [piroxicam]

>  <Unit String>
×10⁻⁶ cm/s

>  <Papp at 4 h, 100 μM>
10.3

$$$$
>  <Compound>
COCCc1ccc(OCC(O)CNC(C)C)cc1 (stereo not shown) [metoprolol]

>  <Unit String>
×10⁻⁶ cm/s

>  <Papp at 4 h, 100 μM>
13.2

$$$$
>  <Compound>
COc1ccc2c(c1)N(C[C@H](C)CN(C)C)c1ccccc1S2 [levomepromazine]

>  <Unit String>
×10⁻⁶ cm/s

>  <Papp at 4 h, 100 μM>
28.5

$$$$
>  <Compound>
Cc1c(OCC(F)(F)F)ccnc1C[S+]([O-])c1nc2ccccc2[nH]1 (stereo not shown) [lansoprazole]

>  <Unit String>
×10⁻⁶ cm/s

>  <Papp at 4 h, 100 μM>
24.4

$$$$

Field: Papp at 4 h, 100 μM. Fill in for each record below.
1. CC(=O)CC(c1ccccc1)c1c(O)c2ccccc2oc1=O (stereo not shown) [warfarin]
2. CC1Cc2ccccc2N1NC(=O)c1ccc(Cl)c(S(N)(=O)=O)c1 (stereo not shown) [indapamide]

[7.48, 16.9]

====

What Mean Pe was measured for each of the following?
Assay: PAMPA permeability, brain polar lipid extract (BPLE) membrane
Details: Brain Polar lipid extract membrane, n=3; * = not detected at acceptor side, value calculated from limit of detection

Field: Mean Pe. Fill in for each record below.
1. N=C(N)c1ccc(OCCCOc2ccc(C(=N)N)cc2)cc1
2. CC(C)c1nc(N(C)S(C)(=O)=O)nc(-c2ccc(F)cc2)c1/C=C/[C@@H](O)C[C@@H](O)CC(=O)O
3. NC(N)=Nc1nc(CSCCC(N)=NS(N)(=O)=O)cs1
4. CCOC(=O)[C@H](CCc1ccccc1)N[C@@H](C)C(=O)N1[C@H](C(=O)O)C[C@@H]2CCC[C@@H]21
5. CC1=NNS(=O)(=O)c2c1ccc(Cl)c2Cl

1. < 0,76* 10-6 cm/s
2. < 0,48* 10-6 cm/s
3. < 0,33* 10-6 cm/s
4. < 0,86* 10-6 cm/s
5. 4.23 10-6 cm/s

Request the reported Mean Pe associated with CCn1cc(C(=O)O)c(=O)c2cc(F)c(N3CCNCC3)cc21 < 0,50* 10-6 cm/s
